Attribution: ChEMBL document CHEMBL4627390

Entries annotated with measured Activity
- Test system: Trypanosoma brucei brucei
- assay.overview: Antitrypanosomal activity against Trypanosoma brucei brucei TC427 trypomastigotes assessed percent viability at 20 ug/ml after 24 hrs by AlamarBlue assay relative to DMSO
- Format: functional
measured.parameter: Activity (%)

>>> reading("COc1cc2c3cc1Oc1cc(ccc1O)C[C@@H]1c4c(cc(OC)c(OC)c4Oc4ccc(cc4)C[C@H]3N(C)CC2)CCN1C")
1.6
>>> reading("COc1cc2c3cc1Oc1cc(ccc1O)C[C@@H]1c4c(cc(OC)c(O)c4Oc4ccc(cc4)C[C@H]3N(C)CC2)CCN1C")
1.9
>>> reading("COc1cc2c3cc1Oc1cc(ccc1OC(C)=O)C[C@@H]1c4c(cc(OC)c(OC)c4Oc4ccc(cc4)C[C@H]3N(C)CC2)CCN1C")
1.4
>>> reading("COc1cc2c3cc1Oc1cc(cc([N+](=O)[O-])c1O)C[C@@H]1c4c(cc(OC)c(OC)c4Oc4ccc(cc4)C[C@H]3N(C)CC2)CCN1C")
1.5

---

Entries annotated with measured MIC
- Tested on: Trypanosoma brucei brucei
- assay.overview: Antitrypanosomal activity against Trypanosoma brucei brucei TC427 trypomastigotes after 24 hrs by AlamarBlue assay
- Format: functional
- test.conditions: TC427, 24 h
measured.parameter: MIC (µM)

>>> reading("COc1cc2c3cc1Oc1cc(ccc1O)C[C@@H]1c4c(cc(OC)c(O)c4Oc4ccc(cc4)C[C@H]3N(C)CC2)CCN1C")
3.8
>>> reading("COc1cc2c3cc1Oc1cc(ccc1OC(C)=O)C[C@@H]1c4c(cc(OC)c(OC)c4Oc4ccc(cc4)C[C@H]3N(C)CC2)CCN1C")
2.3
>>> reading("COc1cc2c3cc1Oc1cc(ccc1O)C[C@@H]1c4c(cc(OC)c(OC)c4Oc4ccc(cc4)C[C@H]3N(C)CC2)CCN1C")
2.6
>>> reading("COc1cc2c3cc1Oc1cc(cc([N+](=O)[O-])c1O)C[C@@H]1c4c(cc(OC)c(OC)c4Oc4ccc(cc4)C[C@H]3N(C)CC2)CCN1C")
2.2
